Source: PubChem BioAssay (NCI)

system: NCI-H522 lung; assay: NCI-60 one-dose screen, 48 h (100 = growth as untreated, 0 = no growth, -100 = all killed); conditions: 10 µM unless noted
Compounds without any hit were thinned out: in the full panel of roughly 83,000, 20% have a hit.

compound	display unit	growth
Cn1cc(-c2nc(N)nnc2-c2c[nH]c3ccc(Br)cc23)c2cccnc21	%	31.8
CCCCCCCCc1ccc(S(=O)(=O)Nc2ccc(CC)cc2C(=O)O)cc1	%	91.4
COc1ccc2oc3c4[nH]c5ccccc5c4c4c(c3c2c1)C(=O)N(C(=O)OC(C)(C)C)C4=O	%	-30.7
CN1CCN(c2ccc(C(=O)/C=C/c3cc(C(F)(F)F)cc(C(F)(F)F)c3)cc2)CC1	%	-69.6
Cc1ccc(/C=C/c2n(Cc3ccc4ccccc4c3)c3ccccc3[n+]2Cc2ccc3ccccc3c2)cc1	%	-82.5
CSc1ccc(C(=O)Nc2ccc3nn(/C(C#N)=C/c4ccccn4)nc3c2)cc1	%	-87.9
Cn1cc(NC(=O)c2cc(NC(=O)c3ccc(C#Cc4ccccc4)cc3)cn2C)cc1C(=O)NCCCN1CCOCC1	%	-52.2
COc1ccc(N2N=C(c3ccc4c(c3)OCO4)CC2c2cccc(NC(=O)CCCNS(=O)(=O)c3ccc(F)cc3)c2)cc1 (centres undefined)	%	-7.84
Cc1cc(C)cc(C(=O)Nc2cccc(-c3cn(-c4ccc(S(N)(=O)=O)cc4)nn3)c2)c1	%	61.7
COc1ccc(NC(=O)Cn2c(O)c(N=Nc3ccc(S(N)(=O)=O)cc3)c3ccccc32)cc1	%	66.6
Cc1ccc([C@H]2C(C(=O)c3ccc(Cl)cc3)C3(N[C@@H]2c2ccccc2)C(=O)Nc2ccc(Cl)cc23)cc1 (some centres undefined)	%	43.9
CC1(c2cc3cc(Cl)ccc3oc2=O)NC(=O)c2c(/C=C/C(=O)OC3CC4CCC3(C)C4(C)C)cccc2N1 (centres undefined)	%	36.8
COc1cc2c(c(OC)c1OC)C(=O)CC(c1cccc(NC(=O)c3cc(NC(=O)[C@H](CO)NC(=O)OC(C)(C)C)ccc3Cl)c1)O2 (some centres undefined)	%	27.6
CN(C)c1ccnc(NCCCSC(c2ccccc2)(c2ccccc2)c2ccccc2)c1	%	41.1
COC(OC)C1=C(C)OC(N)=C(C#N)C12C(=O)Nc1ccccc12 (centres undefined)	%	6.48
O=C(NN1C(=O)/C(=C/C=C/c2ccc([N+](=O)[O-])o2)SC1=S)c1ccc(Cl)cc1	%	-88.8
N#Cc1c(-c2ccc(Cl)cc2)nc2n[nH]c(-c3ccc(Cl)cc3)c2c1-c1cccs1	%	54.4
CN1CCN(/C(=N\c2sc(-c3ccccc3)nc2-c2ccccc2)c2ccccc2)CC1	%	87.3
C[C@H]1CN(C(=O)c2ccc3c(NNC(=O)c4ccncn4)nc4cc(F)c(F)cc4n23)CCN1	%	67.9
O=C(COc1ccc(NC(=O)Nc2ccc(Cl)c(Cl)c2)cc1)N=Nc1c(O)[nH]c2ccc([N+](=O)[O-])cc12	%	61.1
C#CCOc1cc(N(CC)CC)ccc1C(C(=O)NC(C)(C)C)N(C(=O)C1CCc2cc(F)ccc2O1)c1ccccc1F (centres undefined)	%	31.2
O=C(COc1ccc(NC(=O)Nc2ccc(Cl)cc2)cc1)N/N=C/c1ccccc1	%	-83.5
CC12CC[C@@H]3[C@]4(C)COC(c5cn[nH]c5-c5ccc(Br)cc5)O[C@@H]4CC[C@@]3(C)[C@@H]1CC(C1=CCOC1=O)O2 (some centres undefined)	%	37.4
COc1ccc(NC(=O)[C@H](CO)NC(=O)OC(C)(C)C)cc1C(=O)Nc1cccc(C2CC(=O)c3c(cc(OC)c(OC)c3OC)O2)c1 (some centres undefined)	%	31.4
C=C1CCC2C3(C)COC(c4ccccc4)OC3CCC2(C)C1CC(Sc1ccccc1)C1=CCOC1=O (centres undefined)	%	3.01
Nc1nc(-c2ccccc2)c(N=Nc2ccc([N+](=O)[O-])cc2Cl)s1	%	48.8
C#CCOc1cc(N(CC)CC)ccc1C(C(=O)NC(C)(C)C)N(C(=O)C1CCc2cc(F)ccc2O1)c1ccccc1Br (centres undefined)	%	47.6
CCS(=O)(=O)N1CCCC(C(=O)Nc2nc3ccc(NC(=O)c4ccc(F)c(OC)c4F)cc3s2)C1 (centres undefined)	%	52
COc1ccc(C2=NN(C(C)=O)C(c3ccc(OCc4ccc(Cl)cc4)c(OC)c3)C2)cc1OC (centres undefined)	%	28.5
CC(=O)Nc1cccc(-c2nc3cc(-c4ccc(O)cc4)ccc3n2C)c1	%	26.7
Clc1ccc(-c2ccc(OCCCN3CCN(c4ccncc4)CC3)cc2)cc1	%	67.8
CCCCSc1nc(NCCc2c[nH]c3ccccc23)c(C#N)c(-c2ccc(F)cc2)n1	%	69
CC1=C(C(=O)OCc2ccccc2)C(c2c(O)cc(O)cc2O)n2c(nc3ccccc32)N1 (centres undefined)	%	1.19
CC(=O)OC[C@@]1(C)C2CC[C@]3(C)C(CC=C4C5CC(C)(C)CC[C@]5(C(=O)Nc5ccc(Br)cc5)CC[C@]43C)[C@@]2(C)C[C@@H](OC(C)=O)[C@@H]1OC(C)=O (some centres undefined)	%	45.6
